These measurements were taken from ChEMBL document CHEMBL3988442.

- Test system: Wolbachia pipientis
- Method Summary: Anti-Wolbachia Cell-Based Screen
- Type: functional
- Parameters: scale not given: in the data most compounds retested in dose-response had high values
- Test Conditions: 5 µM
The whole screen tested about 48,000 compounds, of which about 13,000 (27%) showed an effect of 50% or more. This is one part of the list.
I'd be grateful if you could share measured Percent Effect for these entries.
Answer by giving the amount and then stating its unit.

> print(dat)
                                   molecule  endpoint.label     result
1            CSc1[nH]nc(NC(=O)c2cccs2)c1C#N  Percent Effect     125.8%
2  CCC(C)(C)NC(=O)Cn1cc(C(N)=O)c(-c2ccccc2)n1  Percent Effect    -8.057%
3  COc1ccc(C(=O)NCCCOC(C)c2ccccc2)c(OC)c1 (centres undefined)  Percent Effect     92.39%
4  CC(NC(=O)c1cccs1)C(=O)NS(=O)(=O)Cc1ccc(C#N)cc1 (centres undefined)  Percent Effect  0.007489%
5  CC(C)C(C)(C#N)NC(=O)Cn1cc(I)cn1 (centres undefined)  Percent Effect      3.38%
6  CN1CCN(C(=O)Cc2ccc(F)cc2)Cc2cccnc21.O=C(O)C(F)(F)F  Percent Effect     -3.35%

Items follow; give Percent Effect for each.
1. CC(NC(=O)Cn1cc(-c2ccccc2)cn1)C1CC1 (centres undefined)
2. O=C(Cc1cnn(-c2ccccc2)n1)NC(C1CC1)C1CC1
3. COc1ccc(C(=O)NCCc2nnc3ccccn23)c(OC)c1
4. CC(NC(=O)CN1C=Nc2ccccc2S1(=O)=O)C1CC1 (centres undefined)
5. CCC(CC)NC(=O)Cn1cc(-c2ccccc2)cn1

Result string:
82.35%
-0.6445%
-1.311%
22.51%
106.4%
